B1: STK38L (parent)
chain: RQLAYSTVGTPDYIAPEVFMQTGY

Variants of: B1
PROTOCOL_SUMMARY: protein stability index of a GFP-peptide fusion (GPS, HEK-293T) (PSI 1-6); higher = more stable;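 note: lentivirally expressed fusions sorted by FACS into six bins by GFP to DsRed ratio, PSI derived from sequencing read proportions per bin multiplied by bin number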
CONDITION_CONTEXT: c terminus: a fixed tail appended
Assignment: determine reported protein stability index for the given variants.
Numbers only.

Could you tell me protein stability index for each of these variants? They are listed below.
1. RQLAYSTVCTPDYIAPEVFMQTGY [G9C]
2. RQLAYSTVGTPDYIAPTVFMQTGY [E17T]
3. RQLAYSTVGTPCYIAPEVFMQTGY [D12C]

**Result**
[1.97, 1.98, 1.98]
